target: PfRH5 from Plasmodium falciparum strain W2-mef (Plasmodium falciparum); experiment: cell-based or functional assay
REPORTED METRIC: Max growth inhibition (%)

| BINDER | UNIT | NUMERIC READOUT |
| --- | --- | --- |
| H1H29104P (antibody, V domains shown) VH: EVQLVESGGGLVQPGRSLRLSCAASGFRFDDYAMHWVRQAPGKGLEWVSGINWNSGGKGYADSVQGRFTISRDNAKNSLYLQMNSLRTEDTALYYCAKDRGIAARLLSRDAFDMWGQGTMVTVSS VL: DIQLTQSPSFLSASVGDRVTITCWASQDVSSYLAWYQQKPGKSPKLLIFAASTLQGGIPSRFSGSGSGTEFTLTISSLRPEDFATYYCQHLNTYPYTFGQGTKLEIKR | % | 47.4 |
